Test system: 598228-144-R-J1-PDC complex spheroids, viability
assay.text: Anticancer human tumor 598228-144-R-J1-PDC patient-derived serous endometrial adenocarcinoma cell line growth inhibition [CLK]
run.parameters: second compound 1 µM; first compound 0.003 µM; active compounds read low
readout: viability, T/C (%)
Please respond with the number in % and leave the unit unwritten.

Consider the molecule shown here: C=CC(=O)Nc1cc(Nc2nccc(-c3cn(C)c4ccccc34)n2)c(OC)cc1N(C)CCN(C)C + CN1CCN(c2cc(C(=O)Nc3cc4cc(-c5cnn(C)c5)ccc4cn3)ccn2)CC1 What is its recorded viability, T/C?
2.14

// repeat for CC(C)CC(NC(=O)C(Cc1ccccc1)NC(=O)c1cnccn1)B(O)O (centres undefined) + CN1CCN(c2cc(C(=O)Nc3cc4cc(-c5cnn(C)c5)ccc4cn3)ccn2)CC1 and report
0.61

Same thing, different molecule: CC(C)CC(NC(=O)C(Cc1ccccc1)NC(=O)c1cnccn1)B(O)O (centres undefined) + CNC(=O)c1ccc(Nc2nc(OC3CCCC3)c3c(-c4ccc5nc(C)oc5c4)c[nH]c3n2)c(OC)c1
19.7

Now the same for C=CC(=O)Nc1cc(Nc2nccc(-c3cn(C)c4ccccc34)n2)c(OC)cc1N(C)CCN(C)C + CNC(=O)c1ccc(Nc2nc(OC3CCCC3)c3c(-c4ccc5nc(C)oc5c4)c[nH]c3n2)c(OC)c1
90.3

----------
For each record, write down the corresponding viability, T/C.
Tested on: 598228-144-R-J1-PDC complex spheroids, viability
assay.text: Anticancer human tumor 598228-144-R-J1-PDC cell line growth inhibition [CLK];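 also: spheroids exposed to compounds for seven days before readout; 100% = DMSO vehicle control wells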
run.parameters: second compound 0.1 µM; first compound 1 µM; active compounds read low

Recorded viability, T/C for COc1c(OCCCN2CCOCC2)ccc2c3n(c(=NC(=O)c4cnc(N)nc4)nc12)CCN3 + CN1CCN(c2cc(C(=O)Nc3cc4cc(-c5cnn(C)c5)ccc4cn3)ccn2)CC1 , please?
10.4%

Now consider COc1c(OCCCN2CCOCC2)ccc2c3n(c(=NC(=O)c4cnc(N)nc4)nc12)CCN3 + CNC(=O)c1ccc(Nc2nc(OC3CCCC3)c3c(-c4ccc5nc(C)oc5c4)c[nH]c3n2)c(OC)c1 and answer again.
5.09%

Okay, and Nc1ccccc1NC(=O)c1ccc(CNC(=O)OCc2cccnc2)cc1 + CN1CCN(c2cc(C(=O)Nc3cc4cc(-c5cnn(C)c5)ccc4cn3)ccn2)CC1 ?
71.3%

And what about the compound CCN1CCN(Cc2ccc(Nc3ncc(F)c(-c4cc(F)c5nc(C)n(C(C)C)c5c4)n3)nc2)CC1 + CN1CCN(c2cc(C(=O)Nc3cc4cc(-c5cnn(C)c5)ccc4cn3)ccn2)CC1 ?
107%

// next record CC(=O)O[C@H]1C(=O)[C@@]2(C)[C@H]([C@H](OC(=O)c3ccccc3)[C@]3(O)C[C@H](OC(=O)[C@H](O)[C@@H](NC(=O)c4ccccc4)c4ccccc4)C(C)=C1C3(C)C)[C@]1(OC(C)=O)CO[C@@H]1C[C@@H]2O + CN1CCN(c2cc(C(=O)Nc3cc4cc(-c5cnn(C)c5)ccc4cn3)ccn2)CC1
64.5%

Same again, this time with O=c1[nH]cc(F)c(=O)[nH]1 + CN1CCN(c2cc(C(=O)Nc3cc4cc(-c5cnn(C)c5)ccc4cn3)ccn2)CC1
139%

Query CC(=O)O[C@H]1C(=O)[C@@]2(C)[C@H]([C@H](OC(=O)c3ccccc3)[C@]3(O)C[C@H](OC(=O)[C@H](O)[C@@H](NC(=O)c4ccccc4)c4ccccc4)C(C)=C1C3(C)C)[C@]1(OC(C)=O)CO[C@@H]1C[C@@H]2O + CNC(=O)c1ccc(Nc2nc(OC3CCCC3)c3c(-c4ccc5nc(C)oc5c4)c[nH]c3n2)c(OC)c1 next
66.2%

Another: COC1C=CCC(C)C(C)S(=O)(=O)NC(=O)c2ccc3c(c2)N(CC2CCC21)CC1(CCCc2cc(Cl)ccc21)CO3 (stereo not given) + CNC(=O)c1ccc(Nc2nc(OC3CCCC3)c3c(-c4ccc5nc(C)oc5c4)c[nH]c3n2)c(OC)c1
70.6%

Another compound to check: CCCS(=O)(=O)Nc1ccc(F)c(C(=O)c2c[nH]c3ncc(-c4ccc(Cl)cc4)cc23)c1F + CNC(=O)c1ccc(Nc2nc(OC3CCCC3)c3c(-c4ccc5nc(C)oc5c4)c[nH]c3n2)c(OC)c1
111%

Entry to check: O=C(c1cc(Cc2n[nH]c(=O)c3ccccc23)ccc1F)N1CCN(C(=O)C2CC2)CC1 + CNC(=O)c1ccc(Nc2nc(OC3CCCC3)c3c(-c4ccc5nc(C)oc5c4)c[nH]c3n2)c(OC)c1
129%

----------
Please respond with reported viability, T/C for every item in the list.
Tested on: 598228-144-R-J1-PDC complex spheroids, viability
assay.text: Anticancer human tumor 598228-144-R-J1-PDC cell line growth inhibition [CLK];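 also: spheroids exposed to compounds for seven days before readout; 100% = DMSO vehicle control wells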
run.parameters: second compound 0.0316 µM; first compound 3.16 µM; active compounds read low
Supply the numeric figure in %, leaving out any unit text.

Query: viability, T/C; subject: C=C(F)C(=O)N1CCN(c2nc(OCC3CCCN3C)nc3c2CCN(c2cccc4cccc(Cl)c24)C3)CC1CC#N (centres undefined) + CN1CCN(c2cc(C(=O)Nc3cc4cc(-c5cnn(C)c5)ccc4cn3)ccn2)CC1
91.6

Could you do the same for COc1cccc2c1C(=O)c1c(O)c3c(c(O)c1C2=O)CC(O)(C(=O)CO)CC3OC1CC(N)C(O)C(C)O1 (centres undefined) + CNC(=O)c1ccc(Nc2nc(OC3CCCC3)c3c(-c4ccc5nc(C)oc5c4)c[nH]c3n2)c(OC)c1 , please?
0.76

Param item: CC(=O)O[C@H]1C(=O)[C@@]2(C)[C@H]([C@H](OC(=O)c3ccccc3)[C@]3(O)C[C@H](OC(=O)[C@H](O)[C@@H](NC(=O)c4ccccc4)c4ccccc4)C(C)=C1C3(C)C)[C@]1(OC(C)=O)CO[C@@H]1C[C@@H]2O + CNC(=O)c1ccc(Nc2nc(OC3CCCC3)c3c(-c4ccc5nc(C)oc5c4)c[nH]c3n2)c(OC)c1
45.2

Lookup Nc1ccn(C2OC(CO)C(O)C2(F)F)c(=O)n1 (centres undefined) + CNC(=O)c1ccc(Nc2nc(OC3CCCC3)c3c(-c4ccc5nc(C)oc5c4)c[nH]c3n2)c(OC)c1
39

----------
System: 598228-144-R-J1-PDC complex spheroids, viability
assay.text: Anticancer human tumor 598228-144-R-J1-PDC cell line growth inhibition [CLK];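 also: spheroids exposed to compounds for seven days before readout; 100% = DMSO vehicle control wells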
run.parameters: second compound 0.1 µM; first compound 0.0316 µM; active compounds read low
Provide the recorded viability, T/C for the entries that follow.
State just the number; it will be interpreted in %.

What value of viability, T/C has been recorded for this entry: CC(=O)O[C@H]1C(=O)[C@@]2(C)[C@H]([C@H](OC(=O)c3ccccc3)[C@]3(O)C[C@H](OC(=O)[C@H](O)[C@@H](NC(=O)c4ccccc4)c4ccccc4)C(C)=C1C3(C)C)[C@]1(OC(C)=O)CO[C@@H]1C[C@@H]2O + CNC(=O)c1ccc(Nc2nc(OC3CCCC3)c3c(-c4ccc5nc(C)oc5c4)c[nH]c3n2)c(OC)c1
70

Next compound: O=c1[nH]cc(F)c(=O)[nH]1 + CN1CCN(c2cc(C(=O)Nc3cc4cc(-c5cnn(C)c5)ccc4cn3)ccn2)CC1
149

Next compound: Nc1ccccc1NC(=O)c1ccc(CNC(=O)OCc2cccnc2)cc1 + CN1CCN(c2cc(C(=O)Nc3cc4cc(-c5cnn(C)c5)ccc4cn3)ccn2)CC1
121

Next compound: CC(Nc1ccc2c(c1)OCCn1cc(N3C(=O)OCC3C(F)F)nc1-2)C(N)=O (stereo not given) + CNC(=O)c1ccc(Nc2nc(OC3CCCC3)c3c(-c4ccc5nc(C)oc5c4)c[nH]c3n2)c(OC)c1
88.2

Also check CC(CO)NC(=O)c1cc(-c2ccc(Cl)cc2)nn(-c2cnn(C)c2)c1=O (stereo not given) + CN1CCN(c2cc(C(=O)Nc3cc4cc(-c5cnn(C)c5)ccc4cn3)ccn2)CC1
130

Field entry: CC1(C)CCC(CN2CCN(c3ccc(C(=O)NS(=O)(=O)c4ccc(NCC5CCOCC5)c([N+](=O)[O-])c4)c(Oc4cnc5[nH]ccc5c4)c3)CC2)=C(c2ccc(Cl)cc2)C1 + CNC(=O)c1ccc(Nc2nc(OC3CCCC3)c3c(-c4ccc5nc(C)oc5c4)c[nH]c3n2)c(OC)c1
105

Another compound to check: CCc1c2c(nc3ccc(O)cc13)-c1cc3c(c(=O)n1C2)COC(=O)[C@]3(O)CC + CN1CCN(c2cc(C(=O)Nc3cc4cc(-c5cnn(C)c5)ccc4cn3)ccn2)CC1
84

Entry CC1(C)CCC(CN2CCN(c3ccc(C(=O)NS(=O)(=O)c4ccc(NCC5CCOCC5)c([N+](=O)[O-])c4)c(Oc4cnc5[nH]ccc5c4)c3)CC2)=C(c2ccc(Cl)cc2)C1 + CN1CCN(c2cc(C(=O)Nc3cc4cc(-c5cnn(C)c5)ccc4cn3)ccn2)CC1 please
116

And the next one, C=CC(=O)N1CCN(c2nc(=O)n(-c3c(C)ccnc3C(C)C)c3nc(-c4c(O)cccc4F)c(F)cc23)C(C)C1 (stereo not given) + CN1CCN(c2cc(C(=O)Nc3cc4cc(-c5cnn(C)c5)ccc4cn3)ccn2)CC1 ?
128

Same again, this time with Cn1ncnc1[C@H]1c2n[nH]c(=O)c3cc(F)cc(c23)N[C@@H]1c1ccc(F)cc1 + CN1CCN(c2cc(C(=O)Nc3cc4cc(-c5cnn(C)c5)ccc4cn3)ccn2)CC1
133
